Target: the molecule itself
Assay: mass photometry; 100 nM protein diluted in PBS (pH 7.4), room temperature, 60 s acquisition, TwoMP mass photometer; monomer to dimer
List of stoichiometry N values.

{"columns": ["PROTEIN", "stoichiometry N"],
 "data": [
  ["human ketohexokinase-A R141E/K174A double mutant (enzyme, ketohexokinase, splice isozyme A (KHK-A), human, with R141E and K174A; Expressed and purified as described for WT KHK-A; PDB 2HLZ is the wild-type parent; source: E. coli BL21-CodonPlus-RIL, purified (Ni-NTA, Superdex 200 gel filtration)) QILCVGLVVLDVISLVDKYPKEDSEIRCLSQRWQRGGNASNSCTVLSLLGAPCAFMGSMAPGHVADFVLDDLRRYSVDLRYTVFQTTGSVPIATVIINEASGSRTILYYDRSLPDVSATDFEKVDLTQFKWIHIEGENASEQVKMLQRIDAHNTRQPPEQKIRVSVEVEAPREELFQLFGYGDVVFVSKDVAKHLGFQSAEEALRGLYGRVRKGAVLVCAWAEEGADALGPDGKLLHSDAFPPPRVVDTLGAGDTFNASVIFSLSQGRSVQEALRFGCQVAGKKCGLQGFDGIV", 2],
  ["human ketohexokinase-A K174A (enzyme, ketohexokinase, splice isozyme A (KHK-A), human, with K174A; Expressed and purified as described for WT KHK-A; PDB 2HLZ is the wild-type parent; source: E. coli BL21-CodonPlus-RIL, purified (Ni-NTA, Superdex 200 gel filtration)) QILCVGLVVLDVISLVDKYPKEDSEIRCLSQRWQRGGNASNSCTVLSLLGAPCAFMGSMAPGHVADFVLDDLRRYSVDLRYTVFQTTGSVPIATVIINEASGSRTILYYDRSLPDVSATDFEKVDLTQFKWIHIEGRNASEQVKMLQRIDAHNTRQPPEQKIRVSVEVEAPREELFQLFGYGDVVFVSKDVAKHLGFQSAEEALRGLYGRVRKGAVLVCAWAEEGADALGPDGKLLHSDAFPPPRVVDTLGAGDTFNASVIFSLSQGRSVQEALRFGCQVAGKKCGLQGFDGIV", 2],
  ["human ketohexokinase-A R141E (enzyme, ketohexokinase, splice isozyme A (KHK-A), human, with R141E; Results and legends print R141E; the abstract and the discussion speak of R141A / alanine at R141; PDB 2HLZ is the wild-type parent; source: E. coli BL21-CodonPlus-RIL, purified (Ni-NTA, Superdex 200 gel filtration)) QILCVGLVVLDVISLVDKYPKEDSEIRCLSQRWQRGGNASNSCTVLSLLGAPCAFMGSMAPGHVADFVLDDLRRYSVDLRYTVFQTTGSVPIATVIINEASGSRTILYYDRSLPDVSATDFEKVDLTQFKWIHIEGENASEQVKMLQRIDAHNTRQPPEQKIRVSVEVEKPREELFQLFGYGDVVFVSKDVAKHLGFQSAEEALRGLYGRVRKGAVLVCAWAEEGADALGPDGKLLHSDAFPPPRVVDTLGAGDTFNASVIFSLSQGRSVQEALRFGCQVAGKKCGLQGFDGIV", 2]
]}
